test: Stability in human liver microsomes assessed as parent compound remaining at 1 uM measured after 60 mins in presence of NADPH by LC-MS/MS analysis; assay type: ADME, Microsome; conditions: read-out: Stability
measurement.label: remaining at 1 h, 1 µM (%)

compound=CN1CCN(CCOc2cc(F)c3c(c2)N(C)C(=O)C32CCN(c3nc4c(c(=O)[nH]3)CCCN4C)CC2)CC1 meas_value=56.5
compound=CN1CCCc2c1nc(N1CCC3(CC1)C(=O)N(CCO)c1cc(F)cc(F)c13)[nH]c2=O meas_value=6.3
compound=CN1CCCc2c1nc(N1CCC3(CC1)C(=O)N(C)c1cc(OCCN4CCCC4)cc(F)c13)[nH]c2=O meas_value=61.5
compound=CS(=O)(=O)c1ccc(-c2nnc(/C=C/c3nnc(-c4ccc(C#N)cc4)o3)n2-c2ccccc2Cl)nc1 meas_value=100
compound=CN1CCCc2c1nc(N1CCC3(CC1)C(=O)N(C)c1cc(N4CCCCC4)cc(F)c13)[nH]c2=O meas_value=1.5
compound=CN1CCCc2c1nc(N1CCC3(CC1)CN(CCO)c1cc(F)cc(F)c13)[nH]c2=O meas_value=1.4
compound="CN1CCCc2c1nc(N1CCC3(CC1)C(=O)N(CC(O)CO)c1cc(F)cc(F)c13)[nH]c2=O (configuration not stated)" meas_value=23.9
compound=CN1CCCc2c1nc(N1CCC3(CC1)C(=O)N(C)c1cc(OCCN4CCCCC4)cc(F)c13)[nH]c2=O meas_value=18.5
compound=CN1CCCc2c1nc(N1CCC3(CC1)C(=O)N(C)c1cc(OCCO)cc(F)c13)[nH]c2=O meas_value=19.8
compound=COc1cc(F)c2c(c1)N(C)C(=O)C21CCN(c2nc3c(c(=O)[nH]2)CCCN3C)CC1 meas_value=1.9
compound=CN(C)c1cc(F)c2c(c1)N(C)C(=O)C21CCN(c2nc3c(c(=O)[nH]2)CCCN3C)CC1 meas_value=1.8
compound=CN1CCCc2c1nc(N1CCC3(CC1)C(=O)N(C)c1cc(N4CCOCC4)cc(F)c13)[nH]c2=O meas_value=6.3
compound=COCCOc1cc(F)c2c(c1)N(C)C(=O)C21CCN(c2nc3c(c(=O)[nH]2)CCCN3C)CC1 meas_value=1.8
compound=C[C@@H]1CN(c2cc(F)c3c(c2)N(C)C(=O)C32CCN(c3nc4c(c(=O)[nH]3)CCCN4C)CC2)C[C@H](C)N1 meas_value=33
compound=CN1CCCc2c1nc(N1CCC3(CC1)C(=O)N(CC(F)(F)F)c1cc(F)cc(F)c13)[nH]c2=O meas_value=8

* * *

molecular target: Poly [ADP-ribose] polymerase 2 (Homo sapiens); assay: Inhibition of human recombinant N-terminal GST-tagged PARP2 (2 to 583 residues) expressed in baculovirus infected Sf9 cells assessed as reduction in auto-PARylation using histone as substrate measured after 45 mins in presence of biotinylated-NAD+ by ELISA
Sequence (Q9UGN5 whole entry, the tested form may be a part): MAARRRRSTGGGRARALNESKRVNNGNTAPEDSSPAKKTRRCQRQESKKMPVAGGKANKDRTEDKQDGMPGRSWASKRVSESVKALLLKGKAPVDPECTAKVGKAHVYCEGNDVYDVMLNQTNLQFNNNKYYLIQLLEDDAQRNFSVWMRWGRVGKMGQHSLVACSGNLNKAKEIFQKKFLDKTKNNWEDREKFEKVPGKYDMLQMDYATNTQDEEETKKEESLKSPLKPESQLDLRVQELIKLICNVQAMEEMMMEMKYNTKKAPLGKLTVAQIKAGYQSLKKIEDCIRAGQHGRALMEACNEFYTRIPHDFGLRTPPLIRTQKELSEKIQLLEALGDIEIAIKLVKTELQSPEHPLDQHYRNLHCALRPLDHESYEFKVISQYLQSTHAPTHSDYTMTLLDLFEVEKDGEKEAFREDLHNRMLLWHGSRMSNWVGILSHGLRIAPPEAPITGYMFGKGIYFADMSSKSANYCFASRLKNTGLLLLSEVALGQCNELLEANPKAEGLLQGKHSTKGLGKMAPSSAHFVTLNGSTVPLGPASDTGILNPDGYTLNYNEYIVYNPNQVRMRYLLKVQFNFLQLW
measurement.label: IC50

smiles=C[C@@H]1CN(c2cc(F)c3c(c2)N(C)C(=O)C32CCN(c3nc4c(c(=O)[nH]3)CCCN4C)CC2)C[C@H](C)O1 measured_on="Poly [ADP-ribose] polymerase 2 (Homo sapiens)" measurement_label=IC50 meas_value="1.24 µM"

* * *

test: Tmax in ICR mouse at 50 mg/kg, po; assay type: ADME, organism-based; settings: in vivo
measurement.label: Tmax (min)

smiles=CN1CCN(c2cc(F)c3c(c2)N(C)C(=O)C32CCN(c3nc4c(c(=O)[nH]3)CCCN4C)CC2)CC1 measurement_label=Tmax meas_value=15
smiles=C[C@@H]1CN(c2cc(F)c3c(c2)N(C)C(=O)C32CCN(c3nc4c(c(=O)[nH]3)CCCN4C)CC2)C[C@H](C)O1 measurement_label=Tmax meas_value=60
